B1: C22orf15 (parent)
chain: RGRHEQSPTSRPRKVSSLPPRSC

Variants of: B1
Test: protein stability index of a GFP-peptide fusion (GPS, HEK-293T) (PSI 1-6); higher = more stable;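 also: lentivirally expressed fusions sorted by FACS into six bins by GFP to DsRed ratio, PSI derived from sequencing read proportions per bin multiplied by bin number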
Settings: c terminus: native
Reported Endpoint: protein stability index
Keep the answer to the number alone.

Provide only the value of recorded protein stability index for `T9S`
2.58

Fill in protein stability index for record `P19R`
2.13

Name the recorded protein stability index of the item `R13D` in your answer.
4.32

Using the record for `S17Q` , state its measured protein stability index.
2.34

Determine from records and report protein stability index for `P12G`
1.4

Kindly indicate its recorded protein stability index. Item: `G2R`
2.96

# return recorded protein stability index for entry `P12T`
2.55

Fill in protein stability index for record `R21T`
4.25

For the variant `R13C` , give its reported protein stability index.
3.56

Identify measured protein stability index associated with `C23H`
2.29

Respond only with protein stability index recorded for `S16Q`
2.92

Look up and report measured protein stability index for this entry: `S16N`
2.53

In one line, give reported protein stability index of the entry `R3H` .
2.76

In one line, give reported protein stability index of the entry `T9R` .
3.3

Supply recorded protein stability index for `T9G` here.
2.07

# return recorded protein stability index for entry `R13W`
1.54

Look up and state reported protein stability index for `G2H`
1.16

Specify protein stability index for `P20F` and stop.
4.13

Could you please provide reported protein stability index for `S10R` ? Thanks!
1.8

Please supply the value of reported protein stability index for the item `R3I`
3.03

Give the value of protein stability index reported for the following: `P12H`
2.55

Give protein stability index for `L18M`
3.65

State its protein stability index for this variant: `S17I`
2.3

Please supply the value of reported protein stability index for the item `R1W`
3.77

Retrieve protein stability index measured for `C23Y` and print it.
3.2

Read off the recorded protein stability index for `R11A`
2.33

Return protein stability index (reported value) for this variant: `S10H`
1.87

Give the reported protein stability index for this variant. `S22T`
3.62

Quick one: give measured protein stability index for `R11P`
3.98

Provide only the value of recorded protein stability index for `R1D`
2.81

Identify measured protein stability index associated with `P20Y`
2.1

Give the measured protein stability index for `P19F`
2.19

Please report the measured protein stability index for `P12Q`
3.88

Supply protein stability index value. Item: `E5N`
2.19

Look up and state reported protein stability index for `S22Q`
2.27

Item `P20E` : provide protein stability index
2.84

State its protein stability index: `S17E`
3.27

Let me know recorded protein stability index for `S7F` , thanks.
2.94

Query protein stability index for `S10F`
1.99

Note protein stability index for the variant shown: `V15P`
4.67

Report protein stability index for `R1V`
1.73

Note down protein stability index recorded for `P12M`
1.89

Query protein stability index for `P20D`
3.82

Please report the measured protein stability index for `R13F`
2.43

Entry `P8Q` needs its protein stability index filled in; supply it.
2.65

Identify protein stability index associated with the variant `R21G`
1.74

Supply recorded protein stability index for `P19I` here.
1.81

Name the recorded protein stability index of the variant listed here: `L18T`
4.07

Indicate the recorded protein stability index value for this variant: `L18Y`
2.29

Dear colleague, please send me the reported protein stability index for `R21A` when you can.
4.53
